Experiment: Oral bioavailability in Sprague-Dawley rat at 10 mg/kg
Type: ADME, organism-based
Conditions: in vivo
assayEndpoint: bioavailability

bioavailability for `Cn1cc(-c2cc(C(O)(C(F)(F)F)C(F)(F)F)cnc2N2CCN(S(=O)(=O)c3ccc(N)nc3)CC2)cn1` is 30%

bioavailability for `Nc1ccc(S(=O)(=O)N2CCN(c3ncc(C(O)(C(F)(F)F)C(F)(F)F)cc3-c3cccnc3)CC2)cn1` is 43%

---

Molecular target: Hexokinase-4 (Homo sapiens)
Sequence (P35557 whole entry): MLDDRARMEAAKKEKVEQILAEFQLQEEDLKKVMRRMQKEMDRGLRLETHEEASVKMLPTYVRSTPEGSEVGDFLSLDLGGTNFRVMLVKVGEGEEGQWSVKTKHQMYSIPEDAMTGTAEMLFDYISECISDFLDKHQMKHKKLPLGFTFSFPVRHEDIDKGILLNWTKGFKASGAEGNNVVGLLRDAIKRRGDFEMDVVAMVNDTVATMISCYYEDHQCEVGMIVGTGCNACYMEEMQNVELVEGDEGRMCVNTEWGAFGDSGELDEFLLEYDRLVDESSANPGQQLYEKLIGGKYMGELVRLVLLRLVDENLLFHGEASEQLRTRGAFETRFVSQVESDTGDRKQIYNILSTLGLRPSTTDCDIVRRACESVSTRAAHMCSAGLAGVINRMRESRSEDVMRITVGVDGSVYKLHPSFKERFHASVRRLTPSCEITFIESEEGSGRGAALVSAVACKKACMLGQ
Experiment: Inhibition of fluorescein-labeled human GK interaction with biotin-labeled human GKRP compound incubated for 20 mins prior to addition of fluorescein-labeled GK measured after 2 to 4 hrs by AlphaScreen assay
Define the label as Criterion met when IC50 is strictly less than 40 nM and as Criterion not met in all remaining cases.

Determine whether this compound shows IC50 lower than 40 nM (ties excluded): `CS(=O)(=O)c1ccc(-c2cc(C(O)(C(F)(F)F)C(F)(F)F)cnc2N2CCN(S(=O)(=O)c3ccc(N)nc3)CC2)cc1`
Criterion not met

Determine whether this compound shows IC50 lower than 40 nM (ties excluded): `COCC#Cc1cc(C(O)(C(F)(F)F)C(F)(F)F)cnc1N1CCN(S(=O)(=O)c2ccc(N)nc2)CC1`
Criterion met

Determine whether this compound shows IC50 lower than 40 nM (ties excluded): `CC(C)(O)C#Cc1cc(C(O)(C(F)(F)F)C(F)(F)F)cnc1N1CCN(S(=O)(=O)c2ccc(N)nc2)CC1`
Criterion not met

Determine whether this compound shows IC50 lower than 40 nM (ties excluded): `Nc1ccc(S(=O)(=O)N2CCN(c3ncc(C(O)(C(F)(F)F)C(F)(F)F)cc3-c3cnccc3F)CC2)cn1`
Criterion met

Determine whether this compound shows IC50 lower than 40 nM (ties excluded): `COc1cc(C(O)(C(F)(F)F)C(F)(F)F)cnc1N1CCN(S(=O)(=O)c2ccc(N)nc2)CC1`
Criterion not met

Determine whether this compound shows IC50 lower than 40 nM (ties excluded): `Nc1ccc(S(=O)(=O)N2CCN(c3ncc(C(O)(C(F)(F)F)C(F)(F)F)cc3-c3ccc4[nH]ncc4c3)CC2)cn1`
Criterion not met

Determine whether this compound shows IC50 lower than 40 nM (ties excluded): `CN1C(=O)Cc2cc(-c3cc(C(O)(C(F)(F)F)C(F)(F)F)cnc3N3CCN(S(=O)(=O)c4ccc(N)nc4)CC3)ccc21`
Criterion met

Determine whether this compound shows IC50 lower than 40 nM (ties excluded): `Nc1ccc(S(=O)(=O)N2CCN(c3ncc(C(O)(C(F)(F)F)C(F)(F)F)cc3-c3cc[nH]n3)CC2)cn1`
Criterion not met

---

Please respond with reported IC50 for every item in the list.
Supply the numeric figure in µM, leaving out any unit text.

Bench note, UniProtKB P10635: `Nc1ccc(S(=O)(=O)N2CCN(c3ncc(C(O)(C(F)(F)F)C(F)(F)F)cc3-c3cccnc3)CC2)cn1` , IC50 reads 27

Bench note, UniProtKB P10635: `Cn1cc(-c2cc(C(O)(C(F)(F)F)C(F)(F)F)cnc2N2CCN(S(=O)(=O)c3ccc(N)nc3)CC2)cn1` , IC50 reads 18

---

Please respond with reported microsomal CLint at 1 µM for every item in the list.
Test: Intrinsic clearance in human liver microsomes at 1 uM after 30 mins in presence of NADPH
Type: ADME
Details: read-out: CLH
Supply the numeric figure in µL/min/mg, leaving out any unit text.

microsomal CLint at 1 µM for `Nc1ccc(S(=O)(=O)N2CCN(c3ncc(C(O)(C(F)(F)F)C(F)(F)F)cc3-c3ccncc3)CC2)cn1` is 15

microsomal CLint at 1 µM for `CC(C)(C)n1cc(-c2cc(C(O)(C(F)(F)F)C(F)(F)F)cnc2N2CCN(S(=O)(=O)c3ccc(N)nc3)CC2)cn1` is 86

microsomal CLint at 1 µM for `CS(=O)(=O)Nc1cccc(-c2cc(C(O)(C(F)(F)F)C(F)(F)F)cnc2N2CCN(S(=O)(=O)c3ccc(N)nc3)CC2)c1` is 40

microsomal CLint at 1 µM for `Nc1ccc(S(=O)(=O)N2CCN(c3ncc(C(O)(C(F)(F)F)C(F)(F)F)cc3C3CC3)CC2)cn1` is 38

microsomal CLint at 1 µM for `NC(=O)c1cccc(-c2cc(C(O)(C(F)(F)F)C(F)(F)F)cnc2N2CCN(S(=O)(=O)c3ccc(N)nc3)CC2)c1` is 17
